Biological target: T1, cynomolgus monkey BCMA (cynomolgus monkey, UniProt A0A2K5UD97 1-53)
T1 construct: Soluble analyte in SPR; construct not described; also called cyBCMA; Cyno BCMA
T1 sequence (A0A2K5UD97 entry or part of it): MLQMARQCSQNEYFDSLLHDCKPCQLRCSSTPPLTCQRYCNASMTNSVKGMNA
Assay: SPR, IgG immobilised, 25 C
Can you tell me koff for the items I'm about to list?
Numbers only, in s⁻¹.

# return koff for each item in the list
1. L1.LGF/L3.NY/H3.AP (antibody, V domains shown, IgG) VH: EVQLLESGGGLVQPGGSLRLSCAASGFTFGSYAMTWVRQAPGKGLEWVSAISGSGGNTFYADSVKGRFTISRDNSKNTLYLQMNSLRAEDTAVYYCARVSPIAAPMDYWGQGTLVTVSS VL: EIVLTQSPGTLSLSPGERATLSCRASQSLGSFYLAWYQQKPGQAPRLLIYGASSRATGIPDRFSGSGSGTDFTLTISRLEPEDFAVYYCQHYNYPPSFTFGQGTKVEIK
2. L1.LGF/L3.KW/H3.AQ (antibody, V domains shown, IgG) VH: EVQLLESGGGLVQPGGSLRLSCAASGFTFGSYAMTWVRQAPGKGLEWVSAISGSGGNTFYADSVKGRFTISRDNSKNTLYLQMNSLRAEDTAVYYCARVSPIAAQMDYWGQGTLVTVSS VL: EIVLTQSPGTLSLSPGERATLSCRASQSLGSFYLAWYQQKPGQAPRLLIYGASSRATGIPDRFSGSGSGTDFTLTISRLEPEDFAVYYCKHYGWPPSFTFGQGTKVEIK
3. L1.GDF/L3.NY/H3.AL (antibody, V domains shown, IgG) VH: EVQLLESGGGLVQPGGSLRLSCAASGFTFGSYAMTWVRQAPGKGLEWVSAISGSGGNTFYADSVKGRFTISRDNSKNTLYLQMNSLRAEDTAVYYCARVSPIAALMDYWGQGTLVTVSS VL: EIVLTQSPGTLSLSPGERATLSCRASQSVGDFYLAWYQQKPGQAPRLLIYGASSRATGIPDRFSGSGSGTDFTLTISRLEPEDFAVYYCQHYNYPPSFTFGQGTKVEIK

Out:
1. 0.00557
2. 0.00355
3. 0.0219

Ref: patent US20160297884A1
